Exercise: state measured Off-Rate Ratio to that of EM0005-90c for each of the binders provided.
Target: human PD-L1/His fusion protein (human, UniProt Q9NZQ7 19-239)
Sequence (Q9NZQ7 19-239 limits assumed): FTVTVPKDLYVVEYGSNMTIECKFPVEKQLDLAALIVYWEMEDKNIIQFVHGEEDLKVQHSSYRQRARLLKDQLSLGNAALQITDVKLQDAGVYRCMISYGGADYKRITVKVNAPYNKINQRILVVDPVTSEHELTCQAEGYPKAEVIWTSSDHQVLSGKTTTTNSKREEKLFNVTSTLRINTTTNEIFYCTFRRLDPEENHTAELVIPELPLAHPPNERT
Assay: BLI off-rate; test group 2
Report as a plain number; the unit % is understood.

Asked: Reported Off-Rate Ratio to that of EM0005-90c for HuEM0005-90-12 (antibody, human IgG1, V domains shown) VH: EVQLVQSGAEVKKPGASVKVSCKTSGYTFTSHSINWVRQATGQGLEWIGYMYIGNGYTEYNEKFKGRATLTSNTSISTAYMELSSLRSEDTAVYYCAKITPVVAPYVMDYWGQGTSVTVSS VL: DIVMTQSPSFLSASVGDRVTITCKASQDVGTAVAWYQQKPGKAPKLLIYWASTRHTGVPSRFSGSGSGTDFTLTISSLQPEDFATYYCQQYSSYPYTFGQGTKLEIK : what is it?
Given back: 100

Asked: Same thing, different binder: HuEM0005-90-11 (antibody, human IgG1, V domains shown) VH: EVQLVQSGAEVKKPGASVKVSCKTSGYTFTSHSINWVRQATGQGLEWMGYMYIGNGYTEYNEKFKGRVTMTSNTSISTAYMELSSLRSEDTAVYYCAKITPVVAPYVMDYWGQGTSVTVSS VL: DIVMTQSPSFLSASVGDRVTITCKASQDVGTAVAWYQQKPGKAPKLLIYWASTRHTGVPSRFSGSGSGTDFTLTISSLQPEDFATYYCQQYSSYPYTFGQGTKLEIK
Given back: 121

Asked: Cool, now HuEM0005-90-10 (antibody, human IgG1, V domains shown) VH: EVQLVQSGAEVKKPGASVKVSCKASGYTFTSHSINWVRQATGQGLEWIGYMYIGNGYTEYNEKFKGRATLTSNTSISTAYMELSSLRSEDTAVYYCAKITPVVAPYVMDYWGQGTSVTVSS VL: DIVMTQSPSFLSASVGDRVTITCKASQDVGTAVAWYQQKPGKAPKLLIYWASTRHTGVPSRFSGSGSGTDFTLTISSLQPEDFATYYCQQYSSYPYTFGQGTKLEIK
Given back: 91
